Test system: Rattus norvegicus
measurement notes: In vivo minimal effective dose for anticonflict activity by intraperitoneal administration in rats by the Vogel conflict procedure.
Assay type: functional
condition: ip, read-out: MED

compound	units of measure	minimal effective dose
c1ccc(-c2cc3nc(N4CCOCC4)c4ccccc4c3nn2)cc1	mg/kg	15
Cc1cc2nc(N3CCCC3)c3ccccc3c2nn1	mg/kg	20
COc1ccc(-c2cc3nc(N(C)CC(C)O)c4ccccc4c3nn2)cc1 (stereo unspecified)	mg/kg	30
CCN(C)c1nc2cc(-c3ccccc3)nnc2c2ccccc12	mg/kg	10
c1ccc(-c2cc3nc(N4CCCC4)c4ccccc4c3nn2)cc1	mg/kg	5
COc1ccc(-c2cc3nc(N(C)C)c4ccccc4c3nn2)cc1	mg/kg	10
COc1ccc(-c2cc3nc(N4CCCCC4)c4ccccc4c3nn2)cc1	mg/kg	10
COCCN(CCOC)c1nc2cc(-c3ccc(OC)cc3)nnc2c2ccccc12	mg/kg	10
CN(C)c1nc2cc(-c3ccccc3)nnc2c2ccccc12	mg/kg	10
COc1ccc(-c2cc3nc(N4CCCC4)c4ccccc4c3nn2)cc1	mg/kg	20
CC(O)CN(C)c1nc2cc(-c3ccccc3)nnc2c2ccccc12 (stereo unspecified)	mg/kg	30

---

Ki values by entry
measured target: GABA-A receptor; anion channel
measurement notes: In vitro binding affinity against benzodiazepine receptor using [3H]diazepam as radioligand

compound	Ki (nM)
COc1ccc(-c2cc3nc(N(C)CC(C)O)c4ccccc4c3nn2)cc1 (centres undefined)	221
CCN(C)c1nc2cc(-c3ccccc3)nnc2c2ccccc12	65.2
CCOc1nc2cc(-c3ccccc3)nnc2c2ccccc12	1500
CN1CCN=C(c2ccccc2)c2cc(Cl)ccc21 [MEDAZEPAM]	528
COc1ccc(-c2cc3nc(N4CCC4)c4ccccc4c3nn2)cc1	69.6
CC(O)CN(C)c1nc2cc(-c3ccccc3)nnc2c2ccccc12 (centres undefined)	136
CC(O)CN(C)c1nc2cc(-c3ccc(Cl)cc3)nnc2c2ccccc12 (centres undefined)	17800
Clc1nc2cc(-c3ccccc3)nnc2c2ccccc12	6200
c1ccc(-c2cc3ncc4ccccc4c3nn2)cc1	4000
c1ccc(-c2cc3nc(N4CCOCC4)c4ccccc4c3nn2)cc1	152
COCCN(CCOC)c1nc2cc(-c3ccc(Cl)cc3)nnc2c2ccccc12	32500
Cc1cc2nc(N3CCCC3)c3ccccc3c2nn1	245
CC(C)Oc1nc2cc(-c3ccccc3)nnc2c2ccccc12	1900
Cc1nnc2ccc(-c3cccc(C(F)(F)F)c3)nn12 [CI-218872]	198
COc1ccc(-c2cc3nc(N4CCCC4)c4ccccc4c3nn2)cc1	18.7
CN(C)c1nc2cc(-c3ccc(Cl)cc3)nnc2c2ccccc12	9300
CN(C)c1nc2cc(-c3ccccc3)nnc2c2ccccc12	28.4
COc1ccc(-c2cc3nc(N4CCCCC4)c4ccccc4c3nn2)cc1	658
c1ccc(-c2cc3nc(N4CCCC4)c4ccccc4c3nn2)cc1	11.4
COCCN(CCOC)c1nc2cc(-c3ccc(OC)cc3)nnc2c2ccccc12	1180
COc1ccc(-c2cc3nc(N(C)C)c4ccccc4c3nn2)cc1	63.3
Oc1nc2cc(-c3ccccc3)nnc2c2ccccc12	1700
COc1ccc(-c2cc3nc(N4CCOCC4)c4ccccc4c3nn2)cc1	402
Clc1ccc(-c2cc3nc(N4CCCC4)c4ccccc4c3nn2)cc1	3480

---

measured target: GABA-A receptor; anion channel (Rattus norvegicus) (UniProt O09028+P15431+P18506+P18508+P19969+P20236+P23574+P23576+P28471+P28473+P30191+P62813+P63079+P63138+Q91ZM7+Q9ES14)
measurement notes: Relative binding to GABA-A central benzodiazepine receptor in the presence and absence of 10e-4 M GABA (GABA shift)
Format: protein-complex assay
GABA ratio values by entry
assay endpoint: GABA ratio

molecule	recorded measurement
COc1ccc(-c2cc3nc(N(C)C)c4ccccc4c3nn2)cc1	1.7
Cc1cc2nc(N3CCCC3)c3ccccc3c2nn1	1
CC(O)CN(C)c1nc2cc(-c3ccccc3)nnc2c2ccccc12 (stereo not given)	1.4
COCCN(CCOC)c1nc2cc(-c3ccc(OC)cc3)nnc2c2ccccc12	2
c1ccc(-c2cc3nc(N4CCCC4)c4ccccc4c3nn2)cc1	1.6
c1ccc(-c2cc3nc(N4CCOCC4)c4ccccc4c3nn2)cc1	1.4
CN1CCN=C(c2ccccc2)c2cc(Cl)ccc21 [MEDAZEPAM]	1.9
CN(C)c1nc2cc(-c3ccccc3)nnc2c2ccccc12	1.2
CCN(C)c1nc2cc(-c3ccccc3)nnc2c2ccccc12	1.5
COc1ccc(-c2cc3nc(N(C)CC(C)O)c4ccccc4c3nn2)cc1 (stereo not given)	1.4

---

Test system: Rattus norvegicus
measurement notes: In vivo minimal effective dose for anticonflict activity by intraperitoneal administration in rats by the Vogel conflict procedure.
Format: functional
condition: ip, read-out: MED
assay endpoint: minimal effective dose (mg/kg)

molecule	recorded measurement
COc1ccc(-c2cc3nc(N4CCC4)c4ccccc4c3nn2)cc1	30
CN1C(=O)CN=C(c2ccccc2)c2cc(Cl)ccc21	0.5
COc1ccc(-c2cc3nc(N4CCOCC4)c4ccccc4c3nn2)cc1	30

---

LD50 values by entry
measurement notes: Lethal dose analysed when administered intraperitoneally
Type: toxicity, organism-based
condition: mouse, in vivo, ip

compound	censor symbol	LD50 [mg/kg]
c1ccc(-c2cc3nc(N4CCCC4)c4ccccc4c3nn2)cc1	=	300
c1ccc(-c2cc3nc(N4CCOCC4)c4ccccc4c3nn2)cc1	=	200
COc1ccc(-c2cc3nc(N(C)C)c4ccccc4c3nn2)cc1	>	600
CCN(C)c1nc2cc(-c3ccccc3)nnc2c2ccccc12	=	300
COCCN(CCOC)c1nc2cc(-c3ccc(OC)cc3)nnc2c2ccccc12	>	600
COc1ccc(-c2cc3nc(N4CCOCC4)c4ccccc4c3nn2)cc1	>	600
CN(C)c1nc2cc(-c3ccccc3)nnc2c2ccccc12	>	600
COc1ccc(-c2cc3nc(N4CCCCC4)c4ccccc4c3nn2)cc1	>	600
COc1ccc(-c2cc3nc(N(C)CC(C)O)c4ccccc4c3nn2)cc1 (configuration not stated)	>	600
COc1ccc(-c2cc3nc(N4CCCC4)c4ccccc4c3nn2)cc1	>	600
COc1ccc(-c2cc3nc(N4CCC4)c4ccccc4c3nn2)cc1	=	600
CC(O)CN(C)c1nc2cc(-c3ccccc3)nnc2c2ccccc12 (configuration not stated)	=	300
